endpoint: pIC50
The scale used: pIC50 is minus the common logarithm of the concentration in molar units.

Request - read-out pIC50 | tested on UniProt Q12809 | compound CC(C)[C@@H]1CC[C@@H](C)C[C@]12NC(=O)C(CC(=O)c1ccccc1)C2=O (stereo partly shown) [closest compound]
4.72

###

Target: human TRPM8 (Homo sapiens)
Sequence (Q7Z2W7 whole entry): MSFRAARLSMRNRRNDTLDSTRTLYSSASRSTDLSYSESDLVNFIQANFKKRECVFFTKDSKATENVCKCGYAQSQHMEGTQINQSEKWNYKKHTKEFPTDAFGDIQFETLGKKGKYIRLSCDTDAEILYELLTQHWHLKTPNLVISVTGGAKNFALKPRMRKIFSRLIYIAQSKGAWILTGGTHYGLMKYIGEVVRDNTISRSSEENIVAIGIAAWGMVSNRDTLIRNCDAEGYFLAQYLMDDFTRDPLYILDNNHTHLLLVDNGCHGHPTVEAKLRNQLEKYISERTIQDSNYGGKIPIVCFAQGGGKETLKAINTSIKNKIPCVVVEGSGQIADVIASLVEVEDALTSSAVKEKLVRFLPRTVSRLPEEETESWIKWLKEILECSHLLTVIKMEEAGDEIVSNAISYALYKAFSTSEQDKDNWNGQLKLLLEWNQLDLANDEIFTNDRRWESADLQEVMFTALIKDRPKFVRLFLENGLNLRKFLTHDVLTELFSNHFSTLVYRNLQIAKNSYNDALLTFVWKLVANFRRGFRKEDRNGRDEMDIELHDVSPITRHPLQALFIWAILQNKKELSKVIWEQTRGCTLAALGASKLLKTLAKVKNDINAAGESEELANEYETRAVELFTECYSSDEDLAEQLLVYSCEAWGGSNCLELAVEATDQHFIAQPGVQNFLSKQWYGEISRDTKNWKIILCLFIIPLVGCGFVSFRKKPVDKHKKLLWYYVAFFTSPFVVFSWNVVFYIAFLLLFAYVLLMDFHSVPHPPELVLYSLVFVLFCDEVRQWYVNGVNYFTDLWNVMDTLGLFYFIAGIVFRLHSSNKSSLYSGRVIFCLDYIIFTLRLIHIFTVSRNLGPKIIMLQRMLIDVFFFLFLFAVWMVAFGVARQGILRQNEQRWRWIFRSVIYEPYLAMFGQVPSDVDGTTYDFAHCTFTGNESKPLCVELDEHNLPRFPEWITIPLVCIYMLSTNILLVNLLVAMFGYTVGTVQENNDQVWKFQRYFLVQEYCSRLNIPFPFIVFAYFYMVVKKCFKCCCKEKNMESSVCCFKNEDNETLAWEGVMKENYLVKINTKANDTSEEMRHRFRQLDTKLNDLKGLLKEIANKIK
Assay: Menthol-induced Ca2+ influx in HEK293 cells stably expressing human TRPM8
Conditions: 30 microM menthol-induced Ca2+ influx, read-out: IC50 against TRPM8
pIC50: −log10 of the molar value.
Exercise: for every item that follows, state its recorded pIC50.

Request - read-out pIC50 | tested on human TRPM8 (Homo sapiens) | compound Cc1ccc2nc(C)n(-c3ccc(C(=O)CN4CC5(CCC(F)(F)CC5)OC4=O)cc3)c2n1
> 6.30

Request - read-out pIC50 | tested on human TRPM8 (Homo sapiens) | compound Cn1cc2c(-c3ccc(C(=O)CN4C(=O)NC5(CCC(F)(F)CC5)C4=O)cc3)cccc2n1
> 6.30

Request - read-out pIC50 | tested on human TRPM8 (Homo sapiens) | compound Cn1c(C(=O)CN2C(=O)NC3(CCC(F)(F)CC3)C2=O)ccc1-c1ccccc1C#N
> 6.30

Request - read-out pIC50 | tested on human TRPM8 (Homo sapiens) | compound Cn1c(=O)n(-c2ccc(C(=O)CN3C(=O)NC4(CCC(F)(F)CC4)C3=O)cc2)c2ccccc21
> 7.00

Request - read-out pIC50 | tested on human TRPM8 (Homo sapiens) | compound Cc1ncccc1-c1c(C)nc(C(=O)CN2C(=O)NC3(CCC(F)(F)CC3)C2=O)n1C
> 6.30

Request - read-out pIC50 | tested on human TRPM8 (Homo sapiens) | compound Cc1c(C(=O)CN2C(=O)NC3(CCC(F)(F)CC3)C2=O)cn(C)c1-c1cccc(F)c1
> 7.00

Request - read-out pIC50 | tested on human TRPM8 (Homo sapiens) | compound Cc1cc(C(=O)CN2C(=O)NC3(CCC(F)(F)CC3)C2=O)n(C)c1-c1ccccc1C#N
> 7.00

###

Target: human TRPM8 (Homo sapiens)
Experiment: Menthol-induced Ca2+ influx in HEK293 cells stably expressing human TRPM8
Conditions: 30 microM menthol-induced Ca2+ influx, read-out: IC50 against TRPM8
pIC50: −log10 of the molar value.
endpoint: pIC50

For the compound shown here, Cc1cc(C(=O)CN2C(=O)NC3(CCC(F)(F)CC3)C2=O)n(C)c1-c1cncc(C(N)=O)c1 , give the reported pIC50.
> 6.30

For the compound shown here, Cc1cccc(-n2c(C)nc(C(=O)CN3CC4(CCC(F)(F)CC4)OC3=O)c2C)c1 , give the reported pIC50.
> 6.30

For the compound shown here, Cc1nc(C(=O)CN2CC3(CCC(F)(F)CC3)OC2=O)c(C)n1-c1ccccc1 , give the reported pIC50.
> 6.30

For the compound shown here, O=C(CN1C(=O)NC2(CCC(F)(F)CC2)C1=O)c1cnc(N2C(=O)COc3ccccc32)cn1 , give the reported pIC50.
> 7.00

For the compound shown here, O=C(CN1C(=O)NC2(CCCCCC2)C1=O)c1ccc(Oc2cccnn2)cc1 , give the reported pIC50.
> 7.00

For the compound shown here, N#Cc1cccc(-c2c(F)cc(C(=O)CN3C(=O)NC4(CCC(F)(F)CC4)C3=O)cc2F)c1 , give the reported pIC50.
> 6.30

For the compound shown here, O=C(CN1C(=O)NC2(CCC(F)(F)CC2)C1=O)c1ccc(-n2cnc3nccnc32)cc1 , give the reported pIC50.
> 7.00

For the compound shown here, O=C(CN1C(=O)NC2(CCC(F)(F)CC2)C1=O)c1ccc(-c2ccnc3[nH]ncc23)nc1 , give the reported pIC50.
> 6.30

###

Target: UniProtKB Q7Z2W7
Experiment: Menthol-induced Ca2+ influx in HEK293 cells stably expressing human TRPM8
Details: 30 microM menthol-induced Ca2+ influx, read-out: IC50 against TRPM8
pIC50: −log10 of the molar value.
Exercise: for every item that follows, state its recorded pIC50.

For the compound shown here, Cc1ccnnc1-c1ccc(C(=O)CN2C(=O)NC3(CCCCC3)C2=O)cc1 , give the reported pIC50.
> 6.30

For the compound shown here, Cc1ccncc1-c1c(C)cc(C(=O)CN2C(=O)NC3(CCC(F)(F)CC3)C2=O)n1C , give the reported pIC50.
> 7.00

For the compound shown here, O=C(CN1C(=O)NC2(CCC(F)(F)CC2)C1=O)c1ccc(-c2ccncc2Cl)cc1 , give the reported pIC50.
> 7.00

For the compound shown here, Cc1c(C(=O)CN2C(=O)NC3(CCC(F)(F)CC3)C2=O)cn(C)c1-c1ccccc1C#N , give the reported pIC50.
> 7.00

For the compound shown here, O=C(CN1C(=O)NC2(CCC(F)(F)CC2)C1=O)c1ccc(-c2nccc3cnccc23)cc1 , give the reported pIC50.
> 7.00

For the compound shown here, O=C(CN1C(=O)NC2(CCC(F)(F)CC2)C1=O)c1ccc(-c2ncccc2Cl)cc1 , give the reported pIC50.
> 7.00

For the compound shown here, O=C(CN1C(=O)NC2(CCCCC2)C1=O)c1ccc(-c2ccccc2C(F)(F)F)nc1 , give the reported pIC50.
> 7.00

For the compound shown here, O=C(CN1C(=O)NC2(CCC(F)(F)CC2)C1=O)c1ccc(-c2cccc3nccn23)cc1 , give the reported pIC50.
> 7.00

For the compound shown here, O=C(CN1C(=O)NC2(CCC(F)(F)CC2)C1=O)c1ccc(N2C(=O)CCc3ccccc32)cc1 , give the reported pIC50.
> 6.30

For the compound shown here, N#Cc1ccccc1-c1c(F)cc(C(=O)CN2C(=O)NC3(CCC(F)(F)CC3)C2=O)cc1F , give the reported pIC50.
> 7.00

For the compound shown here, O=C(CN1C(=O)NC2(CCC(F)(F)CC2)C1=O)c1ccc(-c2cncc3[nH]ccc23)cc1 , give the reported pIC50.
> 8.00

For the compound shown here, Cc1cc(C(=O)CN2C(=O)NC3(CCC(F)(F)CC3)C2=O)n(C)c1-c1ccccc1 , give the reported pIC50.
> 7.00

For the compound shown here, O=C(CN1C(=O)NC2(CCC(F)(F)CC2)C1=O)c1ccc(Cc2ccccn2)cc1 , give the reported pIC50.
> 6.30

For the compound shown here, O=C(CN1C(=O)NC2(CCC(F)(F)CC2)C1=O)c1ccc(Oc2ccccn2)cc1 , give the reported pIC50.
> 7.00

For the compound shown here, Cn1c(-c2cccc3ccncc23)cnc1C(=O)CN1C(=O)NC2(CCC(F)(F)CC2)C1=O , give the reported pIC50.
> 7.00

For the compound shown here, Cc1nc2nccnc2n1-c1ccc(C(=O)CN2C(=O)NC3(CCC(F)(F)CC3)C2=O)cc1 , give the reported pIC50.
> 6.30

###

Molecular target: human TRPM8 (Homo sapiens)
Assay: Menthol-induced Ca2+ influx in HEK293 cells stably expressing human TRPM8
Settings: 30 microM menthol-induced Ca2+ influx, read-out: IC50 against TRPM8
endpoint: IC50

For the compound shown here, Cc1cc(C(=O)CN2C(=O)NC3(CCC(F)(F)CC3)C2=O)n(C)c1-c1cccc(C#N)c1 , give the reported IC50.
< 10 nM

For the compound shown here, CC(O)c1ccccc1-c1ccc(C(=O)CN2C(=O)NC3(CCC(F)(F)CC3)C2=O)cc1 (stereo not shown) , give the reported IC50.
< 100 nM

For the compound shown here, O=C(CN1CC2(CCC(F)(F)CC2)OC1=O)c1ccc(-c2cccc3cccnc23)cc1 , give the reported IC50.
< 500 nM

For the compound shown here, Cc1cc(C(=O)CN2C(=O)NC3(CCC(F)(F)CC3)C2=O)sc1-c1ccccc1C#N , give the reported IC50.
< 100 nM

For the compound shown here, O=C(CN1C(=O)NC2(CCC(F)(F)CC2)C1=O)c1ccc(N2C(=O)COc3ccccc32)nc1 , give the reported IC50.
< 100 nM

For the compound shown here, Cc1nc(C(=O)CN2C(=O)NC3(CCC(F)(F)CC3)C2=O)sc1-c1cncc(F)c1 , give the reported IC50.
< 100 nM

For the compound shown here, Cc1nc(C(=O)CN2C(=O)NC3(CCC(F)(F)CC3)C2=O)sc1-c1ccccc1 , give the reported IC50.
< 100 nM

For the compound shown here, Cc1nc(C(=O)CN2C(=O)NC3(CCC(F)(F)CC3)C2=O)sc1-c1cccnc1 , give the reported IC50.
< 100 nM

For the compound shown here, Cc1sc(C(=O)CN2C(=O)NC3(CCC(F)(F)CC3)C2=O)c(C)c1-c1ccccc1 , give the reported IC50.
< 500 nM

For the compound shown here, Cc1ccc2nc(CN3CCC3)n(-c3ccc(C(=O)CN4C(=O)NC5(CCC(F)(F)CC5)C4=O)cc3)c2n1 , give the reported IC50.
< 500 nM

For the compound shown here, O=C(CN1C(=O)NC2(CCC(F)(F)CC2)C1=O)c1ccc(-c2cnccn2)cc1 , give the reported IC50.
< 500 nM

For the compound shown here, CCOc1nc2ccc(C)nc2n1-c1ccc(C(=O)CN2C(=O)NC3(CCC(F)(F)CC3)C2=O)cc1 , give the reported IC50.
< 100 nM

For the compound shown here, O=C(CN1C(=O)NC2(CCC(F)(F)CC2)C1=O)c1ccc(-c2ccccc2CO)nc1 , give the reported IC50.
< 100 nM

For the compound shown here, Cc1ccncc1-c1c(C)sc(C(=O)CN2C(=O)NC3(CCC(F)(F)CC3)C2=O)c1C , give the reported IC50.
< 100 nM

For the compound shown here, NC(=O)c1cccc(-c2ccc(C(=O)CN3C(=O)NC4(CCC(F)(F)CC4)C3=O)cc2Cl)c1 , give the reported IC50.
< 100 nM

For the compound shown here, Cc1nc2cccnc2n1-c1ccc(C(=O)CN2C(=O)NC3(CCCCC3)C2=O)cn1 , give the reported IC50.
< 100 nM

For the compound shown here, O=C(CN1C(=O)NC2(CCCCC2)C1=O)c1ccc(Oc2ccccc2)cc1 , give the reported IC50.
< 100 nM

For the compound shown here, O=C(CN1C(=O)NC2(CCC(F)(F)CC2)C1=O)c1ccc(-c2ccccc2CCO)cc1 , give the reported IC50.
< 100 nM

For the compound shown here, Cc1cc(C(=O)CN2C(=O)NC3(CCC(F)(F)CC3)C2=O)sc1-c1cncc(F)c1 , give the reported IC50.
< 100 nM

For the compound shown here, O=C(CN1C(=O)NC2(CCC(F)(F)CC2)C1=O)c1ccc(-c2cccc3c2CC(O)C3)cc1 (stereo not shown) , give the reported IC50.
< 500 nM

For the compound shown here, Cc1nc(-c2ccc(C(=O)CN3C(=O)NC4(CCC(F)(F)CC4)C3=O)cc2)c2ccccc2n1 , give the reported IC50.
< 100 nM

For the compound shown here, Cc1nc2ccccc2n1-c1ccc(C(=O)CN2C(=O)NC3(CCC(F)(F)CC3)C2=O)cn1 , give the reported IC50.
< 10 nM

For the compound shown here, Cc1cccc(-n2c(C)nc(C(=O)CN3C(=O)CC4(CCC(F)(F)CC4)C3=O)c2C)c1 , give the reported IC50.
< 500 nM

For the compound shown here, Cc1ccncc1-c1ccc(C(=O)CN2CC3(CCCCC3)OC2=O)cc1 , give the reported IC50.
< 100 nM

For the compound shown here, COc1cncc(-c2ccc(C(=O)CN3C(=O)NC4(CCC(F)(F)CC4)C3=O)cc2)c1 , give the reported IC50.
< 500 nM

For the compound shown here, O=C(CN1C(=O)NC2(CCC(F)(F)CC2)C1=O)c1ccc(-c2cnccc2CO)nc1 , give the reported IC50.
< 100 nM

For the compound shown here, Cc1nc2ccccc2n1-c1cnc(C(=O)CN2C(=O)NC3(CCC(F)(F)CC3)C2=O)cn1 , give the reported IC50.
< 10 nM

For the compound shown here, Cc1nc(C(=O)CN2C(=O)NC3(CCC(F)(F)CC3)C2=O)sc1-c1ccccc1CO , give the reported IC50.
< 100 nM

For the compound shown here, O=C(CN1C(=O)NC2(CCC(F)(F)CC2)C1=O)c1ccc(-c2cnccc2CO)cc1 , give the reported IC50.
< 100 nM

For the compound shown here, Cc1cc(C(=O)CN2C(=O)NC3(CCC(F)(F)CC3)C2=O)n(C)c1-c1cccc(F)c1 , give the reported IC50.
< 100 nM

For the compound shown here, O=C(CN1C(=O)NC2(CCC(F)(F)CC2)C1=O)c1ccc(-c2cncc3ccccc23)nc1 , give the reported IC50.
< 100 nM
